target: Peroxisome proliferator-activated receptor alpha (Mus musculus); test: Agonist activity at PPARalpha in C57BL/6N mouse primary hepatocytes assessed as SCD1 mRNA expression at 50 uM measured after 18 hrs by qRT-PCR analysis; format: cell-based
The source made the active and inactive calls. The calls are words filed in the database; no cut-off is given here.
Log the outcome using a class from active, inactive

Recorded test call requested for Cc1cccc(Nc2cc(Cl)nc(SCC(=O)O)n2)c1C
active

Recorded test call requested for CCCCCCCC(=O)/C=C/CCCCCC(=O)O
inactive

Recorded test call requested for CCCCC/C=C/C(=O)CCCCCCCC(=O)O
inactive

Recorded test call requested for CCCCCCCc1cc(CCCCCC(=O)O)no1
active

---

system: SGBS; assay: Upregulation of PPARgamma gene expression in human preadipocyte derived from Simpson-Golabi-Behmel syndrome (SGBS) patient at 25 uM measured for 12 days by qRT-PCR analysis; format: functional, cell-based
The source made the active and inactive calls. The rule behind the calls is not given here.
PARAMETER MEASURED: Activity

CCCCCCCC(=O)/C=C/CCCCCC(=O)O    Active
CCCCC/C=C/C(=O)CCCCCCCC(=O)O    Active
CCCCCCCc1cc(CCCCCC(=O)O)no1    Active
Cc1cccc(Nc2cc(Cl)nc(SCC(=O)O)n2)c1C    Active

---

Biological target: Peroxisome proliferator-activated receptor alpha (Homo sapiens) (UniProt Q07869)
Sequence (whole entry): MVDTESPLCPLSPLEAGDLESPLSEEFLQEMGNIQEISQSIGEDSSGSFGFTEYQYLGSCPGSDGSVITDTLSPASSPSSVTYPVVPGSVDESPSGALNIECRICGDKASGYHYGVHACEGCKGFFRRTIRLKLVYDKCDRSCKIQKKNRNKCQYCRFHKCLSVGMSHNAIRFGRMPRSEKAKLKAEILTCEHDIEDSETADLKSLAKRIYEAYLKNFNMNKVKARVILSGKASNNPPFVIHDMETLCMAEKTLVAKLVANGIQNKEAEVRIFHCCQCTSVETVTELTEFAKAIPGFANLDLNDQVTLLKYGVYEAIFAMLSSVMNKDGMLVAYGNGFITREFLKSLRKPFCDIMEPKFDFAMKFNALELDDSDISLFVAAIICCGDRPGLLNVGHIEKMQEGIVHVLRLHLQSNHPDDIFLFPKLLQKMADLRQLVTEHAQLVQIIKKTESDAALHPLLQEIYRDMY
Assay: Agonist activity at PPARalpha in human Huh7 cells assessed as PPARA mRNA expression at 50 uM measured after 18 hrs by qRT-PCR analysis
Type: cell-based
The source made the active and inactive calls. No cut-off for these calls is given here.
PARAMETER MEASURED: Activity

CCCCCCCC(=O)/C=C/CCCCCC(=O)O    inactive
CCCCC/C=C/C(=O)CCCCCCCC(=O)O    inactive
Cc1cccc(Nc2cc(Cl)nc(SCC(=O)O)n2)c1C    inactive
CCCCCCCc1cc(CCCCCC(=O)O)no1    inactive

---

Molecular target: Peroxisome proliferator-activated receptor alpha (Homo sapiens, UniProt Q07869)
Sequence (Q07869 whole entry): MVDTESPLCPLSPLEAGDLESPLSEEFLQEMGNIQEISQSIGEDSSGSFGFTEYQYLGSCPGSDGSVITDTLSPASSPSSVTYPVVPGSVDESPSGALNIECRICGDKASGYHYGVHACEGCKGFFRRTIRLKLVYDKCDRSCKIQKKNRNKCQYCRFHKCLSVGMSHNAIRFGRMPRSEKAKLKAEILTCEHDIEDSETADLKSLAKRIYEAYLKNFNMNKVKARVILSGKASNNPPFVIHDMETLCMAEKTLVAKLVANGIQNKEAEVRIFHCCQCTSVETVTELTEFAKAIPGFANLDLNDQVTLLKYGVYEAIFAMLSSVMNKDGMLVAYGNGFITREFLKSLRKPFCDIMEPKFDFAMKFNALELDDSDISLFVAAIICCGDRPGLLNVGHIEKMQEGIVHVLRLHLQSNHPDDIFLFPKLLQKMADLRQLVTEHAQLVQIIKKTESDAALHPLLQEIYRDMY
Assay: Agonist activity at full length human FLAG-tagged GAL4-DBD fused PPARalpha LBD (168 to 468 residues) expressed in COS1 cells measured after 18 hrs by dual luciferase reporter gene assay
PARAMETER MEASURED: pEC50
Reminder that pEC50 is minus the log10 of a molar concentration.

Please look at this compound and report its pEC50: CCCCCCCc1cc(CCCCCC(=O)O)no1
4.33
